This collection of values is drawn from the kinase profiling compilation of Christmann-Franck et al. (2016).

# study.target: BLK (human)
# experiment: radiometric filter-binding kinase assay, Kinase HotSpot
# recorded.conditions: compound 0.5 µM; ATP 10 µM
Binary classification by residual activity, with 90% as an inclusive lower bound for satisfied; all other cases are not satisfied.

Cc1ccc(Nc2nccc(N(C)c3ccc4c(C)n(C)nc4c3)n2)cc1S(N)(=O)=O; not satisfied

// inclusive: residual activity at least 90%? input: Nc1ncnc2c1c(-c1ccc(Oc3ccccc3)cc1)cn2C1CCCC1
not satisfied

// inclusive: residual activity at least 90%? input: O=c1cc(N2CCOCC2)oc2c1ccc1ccccc12
satisfied

// inclusive: residual activity at least 90%? input: Oc1cccc(-c2nc(N3CCOCC3)c3oc4ncccc4c3n2)c1
satisfied

---

# study.target: FGFR3 (human)
# experiment: radiometric filter-binding kinase assay, Kinase HotSpot
# recorded.conditions: compound 0.5 µM; ATP 10 µM
readout.kind: residual activity (%)
Numbers only here, please. The scale is %.

Name the recorded residual activity of Cc1ccc(NC2=CC(=O)c3sc(C)nc3C2=O)cc1 , assay system FGFR3 (human).
86

Name the recorded residual activity of O=S(=O)(c1cccc2cnccc12)N1CCCNCC1 , assay system FGFR3 (human).
94.4

Name the recorded residual activity of CNc1cc2c(Nc3cccc(Br)c3)ncnc2cn1 , assay system FGFR3 (human).
85.4

Name the recorded residual activity of Cc1ccc(S(=O)(=O)/C=C/C#N)cc1 , assay system FGFR3 (human).
95.2

---

# study.target: CDC42BPB (human) (UniProt Q9Y5S2)
# Sequence (Q9Y5S2 whole entry, looked up): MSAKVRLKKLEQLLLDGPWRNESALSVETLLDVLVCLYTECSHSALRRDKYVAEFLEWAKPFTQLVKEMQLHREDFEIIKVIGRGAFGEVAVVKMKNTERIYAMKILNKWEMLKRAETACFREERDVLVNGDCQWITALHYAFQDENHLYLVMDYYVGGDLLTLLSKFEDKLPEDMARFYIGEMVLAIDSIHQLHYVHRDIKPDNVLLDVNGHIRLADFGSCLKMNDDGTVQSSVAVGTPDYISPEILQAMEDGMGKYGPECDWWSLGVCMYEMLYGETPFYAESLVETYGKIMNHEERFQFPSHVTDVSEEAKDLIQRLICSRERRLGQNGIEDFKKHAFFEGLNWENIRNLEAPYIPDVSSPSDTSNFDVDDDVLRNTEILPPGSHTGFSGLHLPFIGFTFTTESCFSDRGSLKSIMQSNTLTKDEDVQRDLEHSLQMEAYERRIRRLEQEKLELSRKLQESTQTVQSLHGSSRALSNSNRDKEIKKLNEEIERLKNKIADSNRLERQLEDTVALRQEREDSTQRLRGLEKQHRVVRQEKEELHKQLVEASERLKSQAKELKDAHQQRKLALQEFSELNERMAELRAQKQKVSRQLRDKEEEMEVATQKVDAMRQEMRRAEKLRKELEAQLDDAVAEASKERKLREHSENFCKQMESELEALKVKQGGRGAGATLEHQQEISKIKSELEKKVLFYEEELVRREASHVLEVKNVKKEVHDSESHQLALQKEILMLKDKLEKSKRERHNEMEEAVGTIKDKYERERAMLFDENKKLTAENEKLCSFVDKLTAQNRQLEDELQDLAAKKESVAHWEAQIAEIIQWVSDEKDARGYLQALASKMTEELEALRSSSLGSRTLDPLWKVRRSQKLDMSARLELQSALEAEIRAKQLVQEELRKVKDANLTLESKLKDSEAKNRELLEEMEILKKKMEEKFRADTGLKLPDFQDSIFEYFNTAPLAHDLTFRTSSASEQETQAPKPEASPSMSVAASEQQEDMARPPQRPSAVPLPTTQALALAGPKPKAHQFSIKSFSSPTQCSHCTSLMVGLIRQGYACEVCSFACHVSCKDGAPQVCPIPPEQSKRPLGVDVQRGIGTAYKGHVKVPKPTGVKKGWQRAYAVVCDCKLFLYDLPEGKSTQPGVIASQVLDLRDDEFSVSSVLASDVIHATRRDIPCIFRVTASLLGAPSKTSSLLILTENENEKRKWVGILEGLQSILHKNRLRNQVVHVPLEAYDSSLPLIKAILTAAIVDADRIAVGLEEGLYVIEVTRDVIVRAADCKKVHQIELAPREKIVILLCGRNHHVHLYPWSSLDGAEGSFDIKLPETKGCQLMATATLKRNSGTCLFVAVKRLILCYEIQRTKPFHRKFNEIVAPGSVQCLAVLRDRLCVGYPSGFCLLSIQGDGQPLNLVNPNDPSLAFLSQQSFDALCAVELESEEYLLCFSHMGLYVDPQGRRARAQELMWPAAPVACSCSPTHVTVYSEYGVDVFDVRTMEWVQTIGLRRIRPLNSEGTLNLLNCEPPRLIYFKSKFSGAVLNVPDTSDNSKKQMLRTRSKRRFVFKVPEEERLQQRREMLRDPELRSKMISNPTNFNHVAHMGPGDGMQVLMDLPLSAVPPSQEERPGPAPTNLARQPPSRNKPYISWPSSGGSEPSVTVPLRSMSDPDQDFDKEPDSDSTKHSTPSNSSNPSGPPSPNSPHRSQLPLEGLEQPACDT
# experiment: radiometric filter-binding kinase assay, Kinase HotSpot
# recorded.conditions: compound 0.5 µM; ATP 10 µM
readout.kind: residual activity (%)
Numbers only here, please. The scale is %.

Illustrative cases are given below, each with its answer.
COc1ccc(COc2ccc(Cc3cnc(N)nc3N)cc2OC)cc1; 96.9
CC#CC(=O)Nc1cc2c(Nc3ccc(F)c(Cl)c3)ncnc2cn1; 96.4
O=c1cc(N2CCOCC2)oc2c1ccc1ccccc12; 98.3

Name the recorded residual activity of Nc1cccc(-c2cc3c(Oc4cccc(O)c4)ncnc3[nH]2)c1 , assay system CDC42BPB (human) (UniProt Q9Y5S2).
93.5

Name the recorded residual activity of COc1cc2ncnc(Nc3cccc(Cl)c3)c2cc1OC , assay system CDC42BPB (human) (UniProt Q9Y5S2).
84.9

Name the recorded residual activity of Cc1ccc(S(=O)(=O)/C=C/C#N)cc1 , assay system CDC42BPB (human) (UniProt Q9Y5S2).
96.4

Name the recorded residual activity of O=C(Nc1cccc(Nc2nccc(Nc3cccc(C(F)(F)F)c3)n2)c1)C1CC1 , assay system CDC42BPB (human) (UniProt Q9Y5S2).
96.6

Name the recorded residual activity of O=C1Nc2ccc(Cl)cc2/C1=C/c1cc(Cl)c(O)c(Cl)c1 , assay system CDC42BPB (human) (UniProt Q9Y5S2).
91.4

Name the recorded residual activity of Cc1[nH]c(/C=C2\C(=O)Nc3ccc(S(=O)(=O)N(C)c4cccc(Cl)c4)cc32)c(C)c1C(=O)N1CCN(C)CC1 , assay system CDC42BPB (human) (UniProt Q9Y5S2).
113

Name the recorded residual activity of Nc1ncnc2[nH]nc(Nc3ccc(F)cc3)c12 , assay system CDC42BPB (human) (UniProt Q9Y5S2).
106

Name the recorded residual activity of Cc1ccc(Nc2nccc(N(C)c3ccc4c(C)n(C)nc4c3)n2)cc1S(N)(=O)=O , assay system CDC42BPB (human) (UniProt Q9Y5S2).
99.9

Name the recorded residual activity of Nc1ccc2ncnc(NCCc3ccc(Oc4ccccc4)cc3)c2c1 , assay system CDC42BPB (human) (UniProt Q9Y5S2).
105
